experiment: folding enthalpy; higher = less favourable; fluorescence melt of hairpins on a sequencing array, two-state fit; settings: sodium 0.088 M
Use met when the recorded folding enthalpy is no lower than -20 kcal/mol; use not met when it is lower.

Query: Has GGTCCGTCGAAAGACACC (((..(((....)))))) a recorded folding enthalpy greater than or equal to -20 kcal/mol?
Response: met

Query: Decide: is the reported value of folding enthalpy for GATAAAGGAAACTTTATC (((((((....))))))) equal to or greater than -20 kcal/mol?
Response: not met

Query: Identify whether the reported folding enthalpy of the following sequence is -20 kcal/mol or greater: GATAGCGAAAGCTCAATC ((((((....)))..)))
Response: met

Query: Reported folding enthalpy at or above -20 kcal/mol? GATCGTAAAACGATC ((((((...))))))
Response: not met

Query: Would you say GCAGGTGGAAACACCCAC (..((((....))))..) shows folding enthalpy at minimum -20 kcal/mol?
Response: met

Query: Check if folding enthalpy >= -20 kcal/mol (inclusive). Item: GGTGACGAAAGTCTCACC ((((((....)))..)))
Response: met

Query: Hi team, for GATTAAGAAATTAATC ((((((....)))))) , is the recorded folding enthalpy at or above -20 kcal/mol?
Response: met

Query: Dear colleague, could you confirm whether GCTCCCGGAAACAGGAGC (((((.(....).))))) has folding enthalpy at or above -20 kcal/mol?
Response: not met

Query: Identify whether the reported folding enthalpy of the following sequence is -20 kcal/mol or greater: GTACTAGGAAACTAGTGC (.(((((....))))).)
Response: not met

Query: Please indicate if the recorded folding enthalpy for GGCCTCGGAAACGAGACC ((.((((....)))).)) meets or exceeds -20 kcal/mol.
Response: not met

Query: Entry GATCGGACGCCCGATC ((((((....)))))) : is its folding enthalpy no less than -20 kcal/mol?
Response: not met

Sourced from the array DNA melting data of Ke et al. (doi:10.1101/2024.01.08.574731)
